Let's look at some molecules and their measured pIC50.
- system.tested: human Gal-3 (hGal-3) (Homo sapiens (Human))
- Sequence (P17931 whole entry): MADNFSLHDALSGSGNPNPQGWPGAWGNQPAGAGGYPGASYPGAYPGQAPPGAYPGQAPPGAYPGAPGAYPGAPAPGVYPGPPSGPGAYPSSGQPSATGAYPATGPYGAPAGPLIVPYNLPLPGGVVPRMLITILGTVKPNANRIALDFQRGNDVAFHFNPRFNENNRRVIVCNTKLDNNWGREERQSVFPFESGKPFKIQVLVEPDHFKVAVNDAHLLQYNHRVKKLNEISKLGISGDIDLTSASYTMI
Conceptually, pIC50 converts a concentration in mol/L into minus its log10.

CO[C@@H]1[C@@H](n2cc(-c3cc(F)c(F)c(F)c3)nn2)[C@@H](O)[C@@H](CO)O[C@@H]1CC1=NOC2(CCC(C(C)C)CC2)C1 (some centres unmarked) [Example 1.25] ... 5.89
CO[C@@H]1[C@@H](n2cc(-c3ccc(C)c(F)c3F)nn2)[C@@H](O)[C@@H](CO)O[C@@H]1CC1=NO[C@]2(CC[C@@H](NC(=O)OC(C)(C)C)CC2)C1 [Example 1.44] ... 7.00
CO[C@@H]1[C@@H](n2cc(-c3ccc(Cl)c(F)c3F)nn2)[C@@H](O)[C@@H](CO)O[C@@H]1CC1=NO[C@]2(CC[C@@H](C(C)(C)O)CC2)C1 [Example 1.65] ... 6.92
CO[C@@H]1[C@@H](n2cc(-c3cc(F)c(F)c(F)c3)nn2)[C@@H](O)[C@@H](CO)O[C@@H]1CC1=NO[C@]2(CC[C@H](O)CC2)C1 [Example 2.03] ... 6.72

Let us examine a further case.
[in] API: value(readout=pIC50, system=human Gal-3 (hGal-3) (Homo sapiens (Human))) for record CO[C@@H]1[C@@H](n2cc(-c3cc(F)cc(Cl)c3)nn2)[C@@H](O)[C@@H](CO)O[C@@H]1CC1=NOC2(CCCCC2)C1 [Example 1.19]
[out] 6.17

====

- system.tested: human Gal-1 (hGal-1) (Homo sapiens)
- Sequence (P09382 2-135 limits assumed): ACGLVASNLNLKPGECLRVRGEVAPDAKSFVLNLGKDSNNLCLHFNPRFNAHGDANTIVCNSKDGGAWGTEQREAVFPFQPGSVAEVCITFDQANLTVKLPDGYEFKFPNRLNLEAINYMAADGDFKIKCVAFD
- assay.notes: Competitive binding assay: biotinylated hGal-1 to microplate-adsorbed asialofetuin (ASF)
- condition.summary: Activities on hGal-1; binding to ASF-coated plates, 3 hours at 4° C.; mean values; read-out: Gal-1 IC50
- Procedure: Evaluation of Compound Inhibitory Activity (IC50) The inhibitory activity of compounds is determined in competitive binding assays. […] Alternatively, and preferably, a human Gal-1 version in which all six cysteines are substituted by serines may be used. Briefly, compounds are serially diluted in DMSO (working dilutions). […] The calculated IC50 values may fluctuate depending on the daily assay performance. […]
// class assignment uses IC50 with these ranges: class A: < 2000 nM; class B: ≥ 2000 nM and < 3000 nM; class C: ≥ 3000 nM

Some entries whose results are on file:
CO[C@@H]1[C@@H](n2cc(-c3cc(F)c(C)c(F)c3)nn2)[C@@H](O)[C@@H](CO)O[C@@H]1CC1=NOC2(CCCCC2)C1 ... class C
CO[C@@H]1[C@@H](n2cc(-c3ccc(F)c(F)c3F)nn2)[C@@H](O)[C@@H](CO)O[C@@H]1CC1=NOC2(CCOCC2)C1 ... class A

[in] Kindly state the category for this compound: CO[C@@H]1[C@@H](n2cc(-c3ccc(C)c(F)c3F)nn2)[C@@H](O)[C@@H](CO)O[C@@H]1CC1=NOC2(CCC(C(C)(C)O)CC2)C1 (stereo partly shown)
[out] class C

[in] Now this one: `CO[C@@H]1[C@@H](n2cc(-c3ccc(C)c(F)c3F)nn2)[C@@H](O)[C@@H](CO)O[C@@H]1CN1CC2(CCCCC2)N=C1C`
[out] class A

[in] Now this one: `Cc1ccc(-c2cn([C@H]3[C@@H](O)[C@@H](CO)O[C@H](CC4=NOC5(CCCCC5)C4)[C@@H]3OCC(=O)O)nn2)c(F)c1F`
[out] class C

[in] Now this one: `CCOC(=O)N[C@H]1CC[C@]2(CC1)CC(C[C@H]1O[C@H](CO)[C@H](O)[C@H](n3cc(-c4ccc(C)c(F)c4F)nn3)[C@H]1OC)=NO2`
[out] class A

[in] Now this one: CO[C@@H]1[C@@H](n2cc(-c3cc(F)c(F)c(F)c3)nn2)[C@@H](O)[C@@H](CO)O[C@@H]1CC1=NOC2(CCC(=NO)CC2)C1 (stereo partly shown)
[out] class B

[in] Now this one: `CO[C@@H]1[C@@H](n2cc(-c3cc(F)c(Cl)c(F)c3)nn2)[C@@H](O)[C@@H](CO)O[C@@H]1CC1=NOC2(CCCCC2)C1`
[out] class C

[in] Now this one: `CO[C@@H]1[C@@H](n2cc(-c3cc(F)c(F)c(F)c3)nn2)[C@@H](O)[C@@H](CO)O[C@@H]1CC1=NOC2(CCN(C(=O)OC(C)(C)C)CC2)C1`
[out] class C

[in] Now this one: `CO[C@@H]1[C@@H](n2cc(-c3ccc(C)c(F)c3F)nn2)[C@@H](O)[C@@H](CO)O[C@@H]1CC1=NO[C@]2(CC[C@H](NC(C)=O)CC2)C1`
[out] class A

[in] Now this one: `CO[C@@H]1[C@@H](n2cc(-c3cc(F)c(F)c(F)c3)nn2)[C@@H](O)[C@@H](CO)O[C@@H]1CC1=NO[C@]2(CC[C@H](NC(C)C)CC2)C1`
[out] class B

[in] Now this one: `CO[C@@H]1[C@@H](n2cc(-c3ccc(C)c(F)c3F)nn2)[C@@H](O)[C@@H](CO)O[C@@H]1CC1=NO[C@]2(CC[C@@H](C(C)(C)O)CC2)C1`
[out] class C

[in] Now this one: `CO[C@@H]1[C@@H](n2cc(-c3cc(F)c(F)c(F)c3)nn2)[C@@H](O)[C@@H](CO)O[C@@H]1CN1CC2(CCN(C(=O)OC(C)(C)C)CC2)OC1=O`
[out] class B

[in] Now this one: `CO[C@@H]1[C@@H](n2cc(-c3cc(F)c(F)c(F)c3)nn2)[C@@H](O)[C@@H](CO)O[C@@H]1CC1=NOC2(CCN(C(C)=O)CC2)C1`
[out] class B

[in] Now this one: `O=C(O)CO[C@@H]1[C@@H](n2cc(-c3cc(F)c(F)c(F)c3)nn2)[C@@H](O)[C@@H](CO)O[C@@H]1CC1=NOC2(CCCCC2)C1`
[out] class C

[in] Now this one: `CO[C@@H]1[C@@H](n2cc(-c3ccc(F)c(F)c3F)nn2)[C@@H](O)[C@@H](CO)O[C@@H]1CC1=NO[C@]2(CC[C@H](NC(=O)OC(C)(C)C)CC2)C1`
[out] class A

[in] Now this one: CO[C@@H]1[C@@H](n2cc(-c3ccc(Cl)c(F)c3F)nn2)[C@@H](O)[C@@H](CO)O[C@@H]1CC1=NOC2(C1)C[C@@H](C(=O)O)N(C(=O)OC(C)(C)C)C2 (mixture of isomers)
[out] class C

[in] Now this one: `CO[C@@H]1[C@@H](n2cc(-c3cc(F)c(F)c(F)c3)nn2)[C@@H](O)[C@@H](CO)O[C@@H]1CC1=NO[C@]2(CC[C@H](NC(C)=O)CC2)C1`
[out] class A
